target: Torsin-1A (Homo sapiens); assay: torsin A binders from cell lysate, primary screen, small-molecule microarray, wild-type, 635/667 nm (AID 1149); settings: COS7 hTOR1A-WT lysate, 635 nm fluorescence, higher = more signal
We use 0.2 as the dividing line for composite z-score: on or above the line is MET, below is NOT MET.

In plain terms: is recorded composite z-score at least 0.2 for `COC(=O)Cn1c(C(=O)N(C)C)cc2c1C[C@H]1CN(C(=O)c3ccccc3)[C@@](Cc3ccc(F)cc3)(C(=O)OC)[C@@H]21` ?
MET

In plain terms: is recorded composite z-score at least 0.2 for CCCCCCCCCCC(O)C1C=CC2C(=O)N(C)C(=O)C2N1NC(=O)OC(C)(C)C (stereo not drawn) ?
NOT MET

In plain terms: is recorded composite z-score at least 0.2 for `C=C(C(=O)CC[C@@H](OC(C)=O)c1ccc(CO)o1)C(C)C` ?
NOT MET

In plain terms: is recorded composite z-score at least 0.2 for `O=C1N(Cc2ccccc2)Cc2ccccc2[C@@H]2OC(c3ccc(OCCCO)cc3)=N[C@]12CCS(=O)(=O)c1ccccc1` ?
MET

In plain terms: is recorded composite z-score at least 0.2 for `O=C1O[C@H](c2ccccc2)[C@H](c2ccccc2)N2[C@H]1[C@@H](C(=O)Nc1nc3ccccc3s1)[C@]1(C(=O)Nc3ccc(C#CC4(O)CCCCCC4)cc31)[C@H]2c1ccccc1OCCO` ?
MET

In plain terms: is recorded composite z-score at least 0.2 for C=CCC(OC(C)=O)[C@@H]1[C@@H](N(Cc2cc3ccccc3o2)C(=O)c2ccc(C)cc2)c2cc(OCCCO)ccc2N1C(=O)Cc1ccc(OC)cc1 (stereo partly drawn) ?
NOT MET

In plain terms: is recorded composite z-score at least 0.2 for COC(=O)C1=CC(CCCO)=CC(C2CC2)N(C)C=C1C(=O)OC (stereo not drawn) ?
MET

In plain terms: is recorded composite z-score at least 0.2 for `CCCC[C@@H]1C[C@H]1[C@@H](NC(=O)c1ccccc1)c1ccc(C(F)(F)F)cc1` ?
NOT MET

----------
Give measured z-score for each item. Keep answers brief.
experiment: inhibitors of hydroxyurea-induced Chk1 phosphorylation, primary screen, imaging, HeLa, phospho-Chk1 nuclear intensity (AID 1187); conditions: hydroxyurea-induced phospho-Chk1 immunofluorescence imaging, higher = more signal
Write the value as a bare number.

The recorded z-score for `CCCC[C@@H](O)C1=C(COc2ccccc2)C[C@H]2C(=O)N(C)C(=O)[C@H]2[C@H]1CO` is -1.41

The recorded z-score for `CCCCO[C@H]1C[C@H]2C(I)=C[C@@H]1C(=O)[C@]21CO1` is -0.0533

The recorded z-score for NC(=O)N1C(=O)C2C(C1=O)C1C=C(CCCO)C2C(c2cccs2)N1Cc1cccc(OC(F)(F)F)c1 (stereo unspecified) is -0.334

The recorded z-score for O=C1OCCC/C=C\[C@H]2OC34C=CCN(CCN5CCOCC5)C(=O)[C@H]3N(CCCCCCO)C(=O)[C@@H]4C12 (stereo partly specified) is 0.587

The recorded z-score for `COCCOC(=O)N1C(=O)[C@@]2(c3cc(C#Cc4ccc(OC)cc4)ccc31)[C@H](C(=O)Nc1nc3ccccc3s1)[C@H]1C(=O)O[C@H](c3ccccc3)[C@H](c3ccccc3)N1[C@@H]2c1ccc(OCCO)cc1` is 0.0745

The recorded z-score for CC(c1ccccc1)C(O)C1C=CC2C(=O)N(c3ccccc3)C(=O)C2N1Nc1ccc([N+](=O)[O-])cc1 (stereo unspecified) is 0.104

The recorded z-score for `O=C1C[C@@](C(=O)NCCN2CCOCC2)(c2ccc([N+](=O)[O-])cc2)[C@@H](c2ccc(CO)cc2I)N1C1CCCCC1` is 0.245

The recorded z-score for `COc1ccc([Si](C)(C)[C@@H]2[C@@H](CCn3cc([C@H](O)c4ccccc4)nn3)O[C@]3(C(=O)N(Cc4ccc(N5CCC5=O)cc4)c4ccccc43)[C@H]2C)cc1` is 0.663

The recorded z-score for `CCCCCCc1nc(C2CC2)cc2c1[Si](C(C)C)(C(C)C)OC2` is -0.0437

The recorded z-score for COc1cc(OC)c(C(O)C2C=CC3C(=O)N(C)C(=O)C3N2NC(=O)OC(C)(C)C)cc1Br (stereo unspecified) is -0.0533

The recorded z-score for CC(C)(C)N1CC=CC23O[C@@H]4C=CCCOC(=O)C4[C@H]2C(=O)N(CCO)[C@@H]3C1=O (stereo partly specified) is -0.528

The recorded z-score for `COCCOC(=O)N1C(=O)[C@@]2(c3cc(C#CC4=CCCCC4)ccc31)[C@H](c1ccccc1OCCO)N1[C@H](c3ccccc3)[C@H](c3ccccc3)OC(=O)[C@H]1[C@@H]2C(=O)N1CCCCCCC1` is 0.347

The recorded z-score for CCCCN1CC=CC23O[C@@H]4/C=C\CCC(C)OC(=O)C4[C@H]2C(=O)N(C(CO)C(C)C)[C@@H]3C1=O (stereo partly specified) is -0.543

The recorded z-score for CN1C(=O)C2C=CC(C(O)c3cccc4ccccc34)N(N3CCCCC3)C2C1=O (stereo unspecified) is 0.271

The recorded z-score for `COc1ccc([Si](C)(C)[C@@H]2[C@@H](CCO)O[C@]3(C(=O)N(Cc4ccc(N5CCCCC5=O)cc4)c4ccccc43)[C@H]2C)cc1` is 0.261

The recorded z-score for `COc1ccc(CCNC(=O)[C@@H]2c3ccccc3C(=O)N(Cc3cc(C(F)(F)F)cc(C(F)(F)F)c3)[C@H]2c2ccc(CO)cc2)cc1` is 0.173

The recorded z-score for `C[C@@H]1ON(c2ccc(C(=O)OC(C)(C)C)cc2)[C@H](c2ccc(O)cc2)[C@H]1C(=O)N1C(=O)OC[C@H]1Cc1ccccc1` is -0.154

The recorded z-score for `CN(C)CCCNC(=O)[C@@]1(C)c2ccccc2C(=O)N(Cc2ccccc2)[C@H]1c1ccc(CO)cc1` is 0.749

The recorded z-score for `O=C(NCC(F)(F)F)[C@@H]1c2ccccc2C(=O)N(Cc2cc(F)cc(C(F)(F)F)c2)[C@H]1c1ccc(CO)cc1` is -0.205

The recorded z-score for CCCCC(O)C1C=CC2C(=O)N(c3ccccc3)C(=O)C2N1Nc1ccc(C(C)C)cc1 (stereo unspecified) is -1.2

The recorded z-score for `CC(C)C(=C=CC[C@H](O)c1ccc(OCCO)cc1)C[C@H](O)c1ccccn1` is 0.223

The recorded z-score for `O=C1C=C(c2ccccc2)C(=O)c2ccc([C@H]3Oc4ccccc4S(=O)(=O)N4CCC[C@@H]34)cc21` is 0.885

The recorded z-score for `CCOC(=O)C1=CC[C@@H](c2cccc(Cl)c2)N(S(=O)(=O)c2ccc(C)cc2)C1` is -0.272

The recorded z-score for `CC(C)Cc1ccc(CN2CC[C@@H](NC(=O)Nc3ccccc3)C2)cc1` is 0.459

The recorded z-score for `COC(=O)[C@@]1(Cc2ccc(F)cc2)[C@H]2c3cc(C(=O)N(C)C)n(CCc4ccc(O)c(OC)c4)c3C[C@H]2CN1C(=O)c1ccccc1` is -0.964

The recorded z-score for C=CCC(OC(C)=O)[C@@H]1[C@@H](N(Cc2cccc3ccccc23)C(=O)Cc2ccc(OC)cc2)c2cc(OCCCO)ccc2N1C(=O)c1ccc2ccccc2n1 (stereo partly specified) is -1.44

The recorded z-score for OCC1CC(c2ccccc2)=NO1 (stereo unspecified) is -0.0558

The recorded z-score for `CCOC(=O)C1=C[C@@H](c2ccccc2)N(S(=O)(=O)c2ccc(C)cc2)[C@H]1c1ccccc1Cl` is -0.865

The recorded z-score for [N-]=[N+]=NCc1ccccc1[C@H]1OC(c2ccc(OCCCO)cc2)=N[C@@]1(CCS(=O)(=O)c1ccccc1)C(=O)NCC(O)CO (stereo partly specified) is 0.0231

The recorded z-score for CN1C(=O)C2C=CC(C(O)c3ccc(F)cc3)N(Nc3ccccc3)C2C1=O (stereo unspecified) is -0.232

The recorded z-score for `CCCNC(=O)[C@@H]1c2ccccc2C(=O)N(C(C)C)[C@H]1c1ccc(CO)cc1` is -0.333

----------
test system: XIP peptide (Xip251-270); assay: small-molecule binders of XIP peptide, primary screen, biochemical, small-molecule microarray, fluorescence 635/667 nm, 0.5 µg/mL protein (AID 1183); conditions: small-molecule microarray binding, fluorescence 635 nm; higher = more signal
measure.name: composite z-score

The recorded composite z-score for `COc1ccc([Si](C)(C)[C@@H]2[C@@H](CC(=O)N(CCO)Cc3ccccc3)O[C@]3(C(=O)N(Cc4cccc(N5C(=O)c6cccc7cccc5c67)c4)c4ccccc43)[C@H]2C)cc1` is 0.604

The recorded composite z-score for CC[C@H]1C2=C3C(CC[C@H]4C(OCc5ccc(F)cc5C(F)(F)F)OC[C@](C)([C@@H]34)N(C(=O)OC(C)(C)C)C2)C(COC)C1COC (some centres undefined) is -0.379

The recorded composite z-score for `O=C(CS)NCCCCCCNC(=O)[C@H]1C[C@H]2C(=O)N[C@@H](Cc3ccccc3)C(=O)N2[C@H]1c1ccc(O)cc1` is 0.849

The recorded composite z-score for `CCOC(=O)C1=C[C@@H](c2ccccc2)N(S(=O)(=O)c2ccc(C)cc2)[C@H]1c1ccccc1Cl` is 0.307

The recorded composite z-score for `COC(=O)[C@@]1(Cc2ccc(OC)cc2)[C@H]2c3cc(C(=O)N(C)C)n(C[C@H](O)CO)c3C[C@H]2CN1C(=O)c1ccccc1` is -0.587

The recorded composite z-score for `C=CC[C@]1(C(=O)NCCN2CCOCC2)N=C(c2ccc(OCCCO)cc2)O[C@H]1c1ccccc1CN=[N+]=[N-]` is 0.887

The recorded composite z-score for `CCOC(=O)C[C@H]1[C@H](OC(=O)c2cc3ccccc3oc2=O)[C@@H](NC(=O)c2ccc(-c3ccccc3)cc2)c2cc(OCCCO)ccc2N1C(=O)c1ccccc1` is 0.701

The recorded composite z-score for O=C1OCC=C[C@H]2OC34C=CCN(Cn5nnc6ccccc65)C(=O)[C@H]3N(CCCO)C(=O)[C@@H]4[C@@H]12 (some centres undefined) is 0.155

The recorded composite z-score for `C=C(COC)C(=O)CC[C@@H](OC(=O)c1cccnc1)c1ccc(OCCO)cc1` is 0.481

The recorded composite z-score for `COc1ccc([Si](C)(C)[C@H]2[C@H](CCn3cc([C@H](O)c4ccccc4)nn3)O[C@@]3(C(=O)N(Cc4ccc(N5C(=O)c6cccc7cccc5c67)cc4)c4ccccc43)[C@@H]2C)cc1` is 0.199

The recorded composite z-score for `COC(=O)C(CC#Cc1ccc2c(c1)[C@]1(C(=O)N2)[C@H](c2ccccc2OCCO)N2[C@H](c3ccccc3)[C@H](c3ccccc3)OC(=O)[C@H]2[C@@H]1C(=O)NC[C@H](O)c1ccccc1)C(=O)OC` is 0.777

The recorded composite z-score for `O=C1O[C@@H](c2ccccc2)[C@@H](c2ccccc2)N2[C@@H](c3ccc(O)cc3)[C@]3(C(=O)Nc4ccc(C#CC5(O)CCCCCC5)cc43)[C@@H](C(=O)NC[C@H](O)c3ccccc3)[C@H]12` is 0.691

The recorded composite z-score for `CCCCC=C[C@@H](NC(=O)c1ccc(-c2ccccc2)cc1)c1ccccc1` is -0.102

The recorded composite z-score for O=C1NC(=O)C2C1C=CC(C(O)CCc1ccccc1)N2Nc1ccc(Cl)cc1Cl (centres undefined) is 0.284
